System: OVCAR-5 ovarian
Test: NCI-60 one-dose screen, 48 h (100 = growth as untreated, 0 = no growth, -100 = all killed)
Settings: 10 µM unless noted
Protocol: Growth inhibition of the OVCAR-5 human tumor cell line is measured as a screen for anti-cancer activity. Cells are grown in 96 well plates and exposed to the test compound for 48 hours. Compounds are tested at a single concentration, which is 10^-5 M for most compounds. The reported endpoint is percent growth (GI% or GIPRCNT), where numbers from 0 - 100% represent growth inhibition, and numbers from -100% - 0 represent cell death. For example, a value of 40 represents 60% growth inhibition. […]
The panel holds about 83,000 compounds, 20% with a hit somewhere; the sample as a whole holds those more often.
Mark t for growth under 70%, f if at or over.

Please check: growth for N=C(N)SCc1c2ccccc2c(CSC(=N)N)c2ccccc12 , strictly under 70% or not?
f

Okay, and O=C1/C(=C/c2cn(-c3ccccc3)nc2-c2ccccc2)SC(=S)N1c1ccccc1 ?
f

Okay, and N#Cc1cc(-c2ccnc(Nc3ccc(NC(=O)CCl)cc3)n2)ccc1N1CCCC1 ?
t

Okay, and O=S(=O)(Nc1cc(Sc2cccc3cccnc23)c(O)c2ccccc12)c1ccc(F)cc1 ?
t
